Biological target: HLA-DR0403 (DRA1*0101/DRB1*0403), soluble recombinant (human)
Test: ELISA
Property Name: IC50 (nM)

Completed entries (count: 2):
Binder | Property Name | Reported Result
YAMMIARFKMFPEVKEKGMA [GAD65p32] | IC50 | 10000
CACDQKPCSCSKVDVNYAFL [GAD65p10] | IC50 | 3550

P = CFWYIPPSLRTLEDNEERMS [GAD65p64]
Q = YAIKTGHPRYFNQLSTGLDM [GAD65p22]
Consider entries P and Q . Which has the numerically lower IC50? Your choice should be expressed through its label.
P

A = RGIVEQCCTSICSLYQLENY [preproinsulin p12]
B = TSICSLYQLENYCN [preproinsulin p13]
Just curious, which one has the larger IC50 reading, A or B ? Refer to your chosen entry by its label in the reply.
A
(A: 1890 nM, B: 470 nM)
